molecular target: CNGA3 ΔN (2-156), 613X channels (Homo sapiens, UniProt Q16281); experiment: Inside-out patch clamp, CNGA3 ΔN; settings: read-out: K1/2 cGMP; +80 mV, no PIPn
Measurement Kind: pEC50
Note: pEC50 values are expressed as the negative base-10 logarithm of concentration in M.

Param item = Nc1nc2c(ncn2[C@@H]2O[C@@H]3COP(=O)(O)O[C@H]3[C@H]2O)c(=O)[nH]1 [cGMP, cyclic guanosine monophosphate] ; retrieve measured pEC50.
4.80

----------
target: CNGA3 N2R-A, 613X channels (Homo sapiens, UniProt Q16281, R101A/R103A); assay: Inside-out patch clamp, CNGA3 N2R-A, 613X; details: read-out: K1/2 cGMP; +80 mV, no PIPn
Measurement Kind: EC50 (µM)
Use µM as the unit, but write only the number.

Param item = Nc1nc2c(ncn2[C@@H]2O[C@@H]3COP(=O)(O)O[C@H]3[C@H]2O)c(=O)[nH]1 [cGMP, cyclic guanosine monophosphate] ; retrieve measured EC50.
16.1
